test: Plasma stability, mouse plasma; settings: mouse plasma, 37° C., timepoint 1 h
Bridge positions count the residues as written; N and C are the ends. Square brackets hold non-standard residues; d marks the D form. Peptide text beside a SMILES is read from it.
Quick reference for Tube 2 (compound concentration) among some molecules
When you answer, write just the number.

Recorded results for 3 molecules are shown here.
molecule	Tube 2 (compound concentration)
CC(=O)N1CCC[C@H]1C(=O)N[C@@H](CO)C(=O)N[C@@H](CCCNC(=N)N)C(=O)N[C@@H](CC(C)C)C(=O)N[C@@H](CCC(=O)O)C(=O)N[C@H]1CCCCNC(=O)CC[C@@H](C(=O)N[C@@H](CCCNC(=N)N)C(=O)N[C@@H](CC(C)C)C(=O)N[C@H](C(=O)N[C@@H](CCC(=O)O)C(N)=O)[C@@H](C)O)NC(=O)[C@H](CCCNC(=N)N)NC(=O)[C@H](CC(C)C)NC(=O)[C@H](CCC(=O)O)NC1=O [SD15805] (Ac-PSRLEKELRERLTE-NH2; lactam 6-10)	2.203
CC(=O)N1CCC[C@H]1C(=O)N[C@@H](CO)C(=O)N[C@@H](CCCNC(=N)N)C(=O)N[C@@H](CC(C)C)C(=O)N[C@@H](CCC(=O)O)C(=O)N[C@H]1CSSC[C@H](C(=O)N[C@@H](CCCNC(=N)N)C(=O)N[C@@H](CCCNC(=N)N)C(=O)N[C@@H](CC(C)C)C(=O)N[C@H](C(=O)N[C@@H](CCC(=O)O)C(N)=O)[C@@H](C)O)NC(=O)[C@H](CC(C)C)NC(=O)[C@H](CCC(=O)O)NC1=O [SD15807] (Ac-PSRLECEL[dC]RRLTE-NH2; disulfide 6-9)	1.693
CC(=O)N1CCC[C@H]1C(=O)N[C@@H](CO)C(=O)N[C@@H](CCCNC(=N)N)C(=O)N[C@@H](CC(C)C)C(=O)N[C@H]1CCC(=O)NCCCC[C@@H](C(=O)N[C@@H](CCCNC(=N)N)C(=O)N[C@@H](CCCNC(=N)N)C(=O)N[C@@H](CC(C)C)C(=O)N[C@H](C(=O)N[C@@H](CCC(=O)O)C(N)=O)[C@@H](C)O)NC(=O)[C@H](CC(C)C)NC(=O)[C@H](CCC(=O)O)NC(=O)[C@H](CCC(=O)O)NC1=O [SD15806] (Ac-PSRLEEELKRRLTE-NH2; lactam 5-9)	2.661

Next up:
Answer with reported Tube 2 (compound concentration) of CC(=O)N1CCC[C@H]1C(=O)N[C@@H](CO)C(=O)N[C@@H](CCCNC(=N)N)C(=O)N[C@@H](CC(C)C)C(=O)N[C@@H](CCC(=O)O)C(=O)N[C@H]1CCC(=O)NCCCC[C@H](C(=O)N[C@@H](CCCNC(=N)N)C(=O)N[C@@H](CC(C)C)C(=O)N[C@H](C(=O)N[C@@H](CCC(=O)O)C(N)=O)[C@@H](C)O)NC(=O)[C@H](CCCNC(=N)N)NC(=O)[C@H](CC(C)C)NC(=O)[C@H](CCC(=O)O)NC1=O [SD15808] (Ac-PSRLEEELR[dK]RLTE-NH2; lactam 6-10) 2.892

====

experiment: Plasma stability, mouse plasma; details: mouse plasma, 37° C., timepoint 3 h
Bridge positions count the residues as written; N and C are the ends. Square brackets hold non-standard residues; d marks the D form. Peptide text beside a SMILES is read from it.
Listing: Tube 1 (compound concentration) of selected molecules
Kindly write the number and append the unit.

Illustrative cases are given below, each with its answer.
molecule	outcomeMeasure	result
CC(=O)N1CCC[C@H]1C(=O)N[C@@H](CO)C(=O)N[C@@H](CCCNC(=N)N)C(=O)N[C@@H](CC(C)C)C(=O)N[C@@H](CCC(=O)O)C(=O)N[C@H]1CCC(=O)NCCCC[C@H](C(=O)N[C@@H](CCCNC(=N)N)C(=O)N[C@@H](CC(C)C)C(=O)N[C@H](C(=O)N[C@@H](CCC(=O)O)C(N)=O)[C@@H](C)O)NC(=O)[C@H](CCCNC(=N)N)NC(=O)[C@H](CC(C)C)NC(=O)[C@H](CCC(=O)O)NC1=O [SD15808] (Ac-PSRLEEELR[dK]RLTE-NH2; lactam 6-10)	Tube 1 (compound concentration)	2.398 x
CC(=O)N1CCC[C@H]1C(=O)N[C@@H](CO)C(=O)N[C@@H](CCCNC(=N)N)C(=O)N[C@@H](CC(C)C)C(=O)N[C@@H](CCC(=O)O)C(=O)N[C@H]1CCCCNC(=O)CC[C@@H](C(=O)N[C@@H](CCCNC(=N)N)C(=O)N[C@@H](CC(C)C)C(=O)N[C@H](C(=O)N[C@@H](CCC(=O)O)C(N)=O)[C@@H](C)O)NC(=O)[C@H](CCCNC(=N)N)NC(=O)[C@H](CC(C)C)NC(=O)[C@H](CCC(=O)O)NC1=O [SD15805] (Ac-PSRLEKELRERLTE-NH2; lactam 6-10)	Tube 1 (compound concentration)	2.125 x
CC(=O)N1CCC[C@H]1C(=O)N[C@@H](CO)C(=O)N[C@@H](CCCNC(=N)N)C(=O)N[C@@H](CC(C)C)C(=O)N[C@@H](CCC(=O)O)C(=O)N[C@H]1CSSC[C@H](C(=O)N[C@@H](CCCNC(=N)N)C(=O)N[C@@H](CCCNC(=N)N)C(=O)N[C@@H](CC(C)C)C(=O)N[C@H](C(=O)N[C@@H](CCC(=O)O)C(N)=O)[C@@H](C)O)NC(=O)[C@H](CC(C)C)NC(=O)[C@H](CCC(=O)O)NC1=O [SD15807] (Ac-PSRLECEL[dC]RRLTE-NH2; disulfide 6-9)	Tube 1 (compound concentration)	1.321 x

API: the following record is the query input.
Report Tube 1 (compound concentration) for CC(=O)N1CCC[C@H]1C(=O)N[C@@H](CO)C(=O)N[C@@H](CCCNC(=N)N)C(=O)N[C@@H](CC(C)C)C(=O)N[C@H]1CCC(=O)NCCCC[C@@H](C(=O)N[C@@H](CCCNC(=N)N)C(=O)N[C@@H](CCCNC(=N)N)C(=O)N[C@@H](CC(C)C)C(=O)N[C@H](C(=O)N[C@@H](CCC(=O)O)C(N)=O)[C@@H](C)O)NC(=O)[C@H](CC(C)C)NC(=O)[C@H](CCC(=O)O)NC(=O)[C@H](CCC(=O)O)NC1=O [SD15806] (Ac-PSRLEEELKRRLTE-NH2; lactam 5-9) 2.604 x
